# assay_notes: Transepithelial transport in MDCKII mock cells
# Assay type: in vitro ADME
# measurement_parameters: dog, MDCK, pH 7.4, read-out: mean permeability of rosuvastatin (A to B)
property_label: Papp A→B at 21 nM

Prompt line: Fill in: Papp A→B at 21 nM of CC(C)c1nc(N(C)S(C)(=O)=O)nc(-c2ccc(F)cc2)c1/C=C/[C@@H](O)C[C@@H](O)CC(=O)O [Rosuvastatin, rosuvastatin] is ___
Response line: 18 ×10⁻⁶ cm/s

----------
# assay_notes: In vivo mass balance study (urinary and faecal recovery) in mice
# measurement_parameters: mouse, in vivo, iv, 23.3 mg/kg, total radioactivity, % Urinary recovery, intravenous TCMCB07
Bridge positions count the residues as written; N and C are the ends. Square brackets hold non-standard residues; d marks the D form. Peptide text beside a SMILES is read from it. d2Nal = N[C@H](Cc1ccc2ccccc2c1)C(=O)O; Nle = CCCC[C@H](N)C(=O)O
property_label: dose excreted at 24 h (%)
# output: bare number, implied unit %

Prompt line: Dear colleague, I am looking for the recorded dose excreted at 24 h of the following compound: CCCC[C@H](NC(C)=O)C(=O)N[C@H]1CC(=O)NCCCC[C@@H](C(=O)N[C@@H](C(=O)N2CCC[C@@H]2C(N)=O)C(C)C)NC(=O)[C@H](Cc2c[nH]c3ccccc23)NC(=O)[C@H](CCCN=C(N)N)NC(=O)[C@@H](Cc2ccc3ccccc3c2)NC(=O)[C@@H]2CCCN2C1=O [TCMCB07] (Ac-[Nle]DP[d2Nal]RWK[dV][dP]-NH2; lactam 2-7)
Response line: 14

----------
# assay_notes: Transepithelial transport in MDCKII mock cells
# Assay type: in vitro ADME
# measurement_parameters: dog, MDCK, pH 7.4, read-out: mean permeability of rosuvastatin (B to A)
property_label: Papp B→A at 21 nM (×10⁻⁶ cm/s)
Numeric answer only, unit ×10⁻⁶ cm/s assumed.

Prompt line: Consider the compound shown here: CC(C)c1nc(N(C)S(C)(=O)=O)nc(-c2ccc(F)cc2)c1/C=C/[C@@H](O)C[C@@H](O)CC(=O)O [Rosuvastatin, rosuvastatin] What is its recorded Papp B→A at 21 nM?
Response line: 55

----------
# assay_notes: Transepithelial transport in MDCKII mock cells
# Assay type: in vitro ADME
# measurement_parameters: dog, MDCK, pH 7.4, read-out: mean permeability of digoxin (A to B)
property_label: Papp A→B at 38 nM (×10⁻⁶ cm/s)
Answer in ×10⁻⁶ cm/s, number only, no unit symbol.

Prompt line: # input compound: "C[C@H]1O[C@@H](O[C@H]2[C@@H](O)C[C@H](O[C@H]3[C@@H](O)C[C@H](O[C@H]4CC[C@@]5(C)[C@H](CC[C@@H]6[C@@H]5C[C@@H](O)[C@]5(C)[C@@H](C7=CC(=O)OC7)CC[C@]65O)C4)O[C@@H]3C)O[C@@H]2C)C[C@H](O)[C@@H]1O" ; wanted: its Papp A→B at 38 nM
Response line: 6.3

----------
# tested_system: BCRP (ABCG2) (Homo sapiens, UniProt Q9UNQ0)
# Construct: host or cells: MDCKII
# Sequence (Q9UNQ0 whole entry): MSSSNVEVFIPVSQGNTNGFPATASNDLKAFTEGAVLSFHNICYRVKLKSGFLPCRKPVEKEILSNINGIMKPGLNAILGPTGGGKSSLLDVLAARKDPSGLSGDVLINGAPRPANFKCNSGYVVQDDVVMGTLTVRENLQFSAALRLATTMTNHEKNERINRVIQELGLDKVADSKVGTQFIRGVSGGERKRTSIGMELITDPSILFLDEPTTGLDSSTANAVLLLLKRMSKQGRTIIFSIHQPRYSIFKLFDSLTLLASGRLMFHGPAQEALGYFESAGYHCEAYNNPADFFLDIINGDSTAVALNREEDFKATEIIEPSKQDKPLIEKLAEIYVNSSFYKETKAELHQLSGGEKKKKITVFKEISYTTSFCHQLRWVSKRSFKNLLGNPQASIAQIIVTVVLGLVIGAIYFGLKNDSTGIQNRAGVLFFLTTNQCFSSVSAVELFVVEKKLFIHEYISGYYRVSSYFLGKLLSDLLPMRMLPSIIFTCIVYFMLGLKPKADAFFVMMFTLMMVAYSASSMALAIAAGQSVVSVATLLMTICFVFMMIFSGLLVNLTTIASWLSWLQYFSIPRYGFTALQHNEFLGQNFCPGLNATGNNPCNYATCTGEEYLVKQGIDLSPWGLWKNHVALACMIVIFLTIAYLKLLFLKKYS
# assay_notes: Transepithelial transport of rosuvastatin (±TCMCB07) in MDCKII/BCRP cells
# Format: in vitro ADME
# measurement_parameters: human, pH 7.4; MDCKII/BCRP, rosuvastatin alone; table values multiplied ×10^6, cm/s
property_label: Papp B→A at 21 nM
Write the numeric value and append its unit.

Prompt line: Endpoint output: Papp B→A at 21 nM of CC(C)c1nc(N(C)S(C)(=O)=O)nc(-c2ccc(F)cc2)c1/C=C/[C@@H](O)C[C@@H](O)CC(=O)O [Rosuvastatin, rosuvastatin] . Value?
Response line: 76.8 ×10⁻⁶ cm/s
